Target: NRZ R86A (zebrafish (Danio rerio)) (UniProt Q8UWD5)
Assay: ITC; MicroCal iTC200, 25 °C; NRZ (wt, D79A or R86A) at 30 μM in 25 mM HEPES pH 7.5, 150 mM NaCl, 2 mM BME; BH3 peptide at 300 μM titrated in 19 injections of 2.0 μl; triplicate
Each record is given condition met if its reported Kd is strictly below 3 µM. Records at or above 3 µM are given condition not met.

QUERY: Find out if reported Kd for ELCDPSHKRLAQCLQQIGDELDGNAQLQ [zBax BH3 motif peptide] is less than 3 µM
RESULT: condition not met

QUERY: Confirm or reject: Kd of EEQAVERVAVQLRTIGDEMNAVFLQR [zPuma BH3 motif peptide] lies strictly below 3 µM
RESULT: condition met

QUERY: Lab note: Kd threshold 3 µM. Does this binder come in strictly under it? NMRVTQTIGRQLAQIGDEMDNKWRQE [zBik BH3 motif peptide]
RESULT: condition met

QUERY: Just wondering, is Kd of ALWAAKKYGQQLRRMSDEFDKGQMKR [zBad BH3 motif peptide] below 3 µM?
RESULT: condition not met

QUERY: Would you kindly verify if Kd of EQTAVVECAQQLRNIGDLLNWKYKLL [zNoxa BH3 motif peptide] is strictly less than 3 µM?
RESULT: condition met

QUERY: Is Kd of ALPPEMVVARELRRIGDEFNRLYCEA [zBim BH3 motif peptide] strictly below 3 µM?
RESULT: condition met

The values you see were collected from paper PMC6148235.
